# tested system: endogenous MLKL in MDF (Mus musculus (Mouse), UniProt Q9D2Y4)
# Sequence (Q9D2Y4 whole entry): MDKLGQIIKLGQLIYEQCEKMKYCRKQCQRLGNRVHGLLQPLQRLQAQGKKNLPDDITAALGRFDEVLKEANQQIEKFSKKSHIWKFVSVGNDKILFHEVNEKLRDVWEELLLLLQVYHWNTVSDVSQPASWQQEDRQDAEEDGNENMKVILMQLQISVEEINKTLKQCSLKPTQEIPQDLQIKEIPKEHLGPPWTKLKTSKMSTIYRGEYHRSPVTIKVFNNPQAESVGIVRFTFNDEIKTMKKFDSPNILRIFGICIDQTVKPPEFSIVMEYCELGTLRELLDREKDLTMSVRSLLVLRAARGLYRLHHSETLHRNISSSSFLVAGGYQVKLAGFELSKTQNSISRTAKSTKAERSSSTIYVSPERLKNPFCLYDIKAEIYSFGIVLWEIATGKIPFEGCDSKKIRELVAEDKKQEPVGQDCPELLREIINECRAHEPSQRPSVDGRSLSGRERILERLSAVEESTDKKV
# assay method text: Degradation assay: endogenous MLKL in MDF (western blot)
# test settings: MDF cells, 24 h incubation with compound, MLKL adjusted for loading with GAPDH, normalized to DMSO only control, read-out: Degradation of endogenous MLKL in MDF (DC50 cell-based assay)
assay readout: DC50

Example compounds with recorded DC50:
compound	DC50
C[C@H](Oc1cc(-c2nn(C)c3c(-c4cnn(C5CCN(C(=O)[C@]6(F)C[C@@H](Nc7cccc8c7C(=O)N(C7CCC(=O)NC7=O)C8=O)C6)CC5)c4)cnc(N)c23)ccc1NS(=O)(=O)C(F)F)c1ccc(F)cc1 (stereo partly drawn)	< 1 µM
Cc1ncsc1-c1ccc(CNC(=O)[C@@H]2C[C@@H](O)CN2C(=O)[C@@H](NC(=O)CCCCCCCCC#Cc2cnc(N)c3c(-c4ccc(NS(=O)(=O)C(F)F)c(O[C@@H](C)c5ccc(F)cc5)c4)nn(C)c23)C(C)(C)C)cc1	1 to 10 µM
CCS(=O)(=O)Nc1ccc(-c2nn(C)c3c(-c4cnn(CCCCCCCOc5cccc6c5C(=O)N(C5CCC(=O)NC5=O)C6=O)c4)cnc(N)c23)cc1F (stereo not drawn)	< 1 µM

// for each compound in input: emit DC50
1. C[C@H](Oc1cc(-c2nn(C)c3c(-c4cnn(C5CCN(C(=O)c6ccc(CNc7cccc8c7C(=O)N(C7CCC(=O)NC7=O)C8=O)cc6)CC5)c4)cnc(N)c23)ccc1NS(=O)(=O)C(F)F)c1ccc(F)cc1 (stereo partly drawn)
2. C[C@H](Oc1cc(-c2nn(C)c3c(-c4cnn(C5CCN(C(=O)COc6cccc7c6C(=O)N(C6CCC(=O)NC6=O)C7=O)CC5)c4)cnc(N)c23)ccc1NS(=O)(=O)C(F)F)c1ccc(F)cc1 (stereo partly drawn)
3. Cc1ncsc1-c1ccc(CNC(=O)[C@@H]2C[C@@H](O)CN2C(=O)[C@@H](NC(=O)C2(F)CC2)C(C)(C)C)c(OCCCCCCCCCn2cc(-c3cnc(N)c4c(-c5ccc(NS(=O)(=O)C(F)F)c(O[C@@H](C)c6ccc(F)cc6)c5)nn(C)c34)cn2)c1
4. C[C@H](Oc1cc(-c2nn(C)c3c(-c4cnn(C5CCN(CCc6ccc7c(c6)C(=O)N(C6CCC(=O)NC6=O)C7=O)CC5)c4)cnc(N)c23)ccc1NS(=O)(=O)C(F)F)c1ccc(F)cc1 (stereo partly drawn)

Response:
["< 1 µM", "1 to 10 µM", "< 1 µM", "< 1 µM"]

// for each compound in input: emit DC50
1. Cc1ncsc1-c1ccc(CNC(=O)[C@@H]2C[C@@H](O)CN2C(=O)[C@@H](NC(=O)C2(F)CC2)C(C)(C)C)c(OCCCCCCn2cc(-c3cnc(N)c4c(-c5ccc(NS(=O)(=O)C(F)F)c(O[C@@H](C)c6ccc(F)cc6)c5)nn(C)c34)cn2)c1
2. C[C@H](Oc1cc(-c2nn(C)c3c(-c4cnn(C5CCN(C(=O)[C@H]6CC[C@H](Nc7cccc8c7C(=O)N(C7CCC(=O)NC7=O)C8=O)CC6)CC5)c4)cnc(N)c23)ccc1NS(=O)(=O)C(F)F)c1ccc(F)cc1 (stereo partly drawn)

Response:
1: 1 to 10 µM; 2: < 1 µM

----------
Provide the reported pKd of each item.
# tested system: human RIPK1 (Homo sapiens (Human), UniProt Q13546)
# Sequence (Q13546 whole entry): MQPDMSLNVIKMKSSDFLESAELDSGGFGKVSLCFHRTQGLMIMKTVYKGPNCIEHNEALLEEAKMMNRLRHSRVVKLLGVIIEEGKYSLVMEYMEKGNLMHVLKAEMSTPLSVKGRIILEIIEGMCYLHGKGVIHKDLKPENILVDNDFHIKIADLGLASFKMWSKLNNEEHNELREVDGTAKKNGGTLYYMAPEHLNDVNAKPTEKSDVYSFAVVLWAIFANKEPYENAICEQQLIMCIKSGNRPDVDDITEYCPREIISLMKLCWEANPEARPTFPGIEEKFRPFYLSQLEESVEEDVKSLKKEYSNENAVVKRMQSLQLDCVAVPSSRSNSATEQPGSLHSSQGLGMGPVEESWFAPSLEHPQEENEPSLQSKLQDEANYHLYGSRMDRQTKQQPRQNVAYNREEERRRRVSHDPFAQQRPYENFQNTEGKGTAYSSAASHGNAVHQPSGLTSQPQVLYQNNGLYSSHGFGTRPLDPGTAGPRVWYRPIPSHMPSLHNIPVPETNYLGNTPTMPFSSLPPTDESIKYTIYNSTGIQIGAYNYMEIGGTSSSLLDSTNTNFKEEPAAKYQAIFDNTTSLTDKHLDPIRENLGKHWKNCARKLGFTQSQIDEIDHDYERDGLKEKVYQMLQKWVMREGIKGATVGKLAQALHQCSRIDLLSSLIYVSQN
pKd: −log10 of the molar value.

Example molecules with recorded pKd:
> print(dat)
                                   molecule  assay.result
1  C[C@H](Oc1cc(-c2coc3c(-c4cnn(C5CCOCC5)c4)cnc(N)c23)ccc1NS(=O)(=O)C(F)F)c1ccc(F)cc1        < 5.00
2  CCS(=O)(=O)Nc1ccc(-c2coc3c(-c4cnn(C5CCOCC5)c4)cnc(N)c23)cc1OCc1ccc(F)cc1        < 5.00

Prompt: Tell me its pKd given C[C@H](Oc1cc(-c2nn(C)c3c(-c4cnn(C5CCOC5)c4)cnc(N)c23)ccc1NS(=O)(=O)C(F)F)c1ccc(F)cc1 (stereo partly drawn) as the entry.
Response: < 5.00

----------
# System: U937 human histiocytic leukemia cell line
# assay method text: Cellular assay: inhibition of TSQ induced necroptosis, CellTitre-Glo viability
# test settings: Homo sapiens, U-937; U937 cells, 48 hours, TSQ cocktail, Table 26; read-out: Inhibition of TSQ-induced necroptosis (IC50 cell-based assay)
Provide the reported IC50 of each item.

molecule	IC50
Cc1ncsc1-c1ccc(CNC(=O)[C@@H]2C[C@@H](O)CN2C(=O)[C@@H](NC(=O)CCN2CC(n3cc(-c4cnc(N)c5c(-c6ccc(NS(=O)(=O)C(F)F)c(O[C@@H](C)c7ccc(F)cc7)c6)nn(C)c45)cn3)C2)C(C)(C)C)cc1 [Compound 1010]	1 to 10 µM
Cc1ncsc1-c1ccc(CNC(=O)[C@@H]2C[C@H](O)CN2C(=O)[C@@H](NC(=O)COCCOCCn2cc(-c3cnc(N)c4c(-c5ccc(NS(=O)(=O)C(F)F)c(O[C@@H](C)c6ccc(F)cc6)c5)nn(C)c34)cn2)C(C)(C)C)cc1 [Compound 1007]	< 1 µM
Cc1ncsc1-c1ccc(CNC(=O)[C@@H]2C[C@@H](O)CN2C(=O)[C@@H](NC(=O)COCCN2CCC(n3cc(-c4cnc(N)c5c(-c6ccc(NS(=O)(=O)C(F)F)c(O[C@@H](C)c7ccc(F)cc7)c6)nn(C)c45)cn3)C2)C(C)(C)C)cc1 (stereo partly shown) [Compound 1013]	1 to 10 µM

We now examine a further molecule.
Prompt: Tell me its IC50 given CCS(=O)(=O)Nc1ccc(-c2n[nH]c3c(-c4cnn(CCCCCCC(=O)N[C@H](C(=O)N5C[C@H](O)C[C@H]5C(=O)NCc5ccc(-c6scnc6C)cc5)C(C)(C)C)c4)cnc(N)c23)cc1OCc1ccc(F)cc1 [Compound 1003] as the entry.
Response: > 10 µM

----------
Provide the reported IC50 of each item.
# Tested on: U937 human histiocytic leukemia cell line
# assay method text: Cellular assay: inhibition of TSQ induced necroptosis, CellTitre-Glo viability
# test settings: Homo sapiens, U-937; U937 cells, 48 hours, TSQ cocktail, Table 26; read-out: Inhibition of TSQ-induced necroptosis (IC50 cell-based assay)

compound	assay readout	assay result
Cc1ncsc1-c1ccc(CNC(=O)[C@@H]2C[C@@H](O)CN2C(=O)[C@@H](NC(=O)CCN2CCC(n3cc(-c4cnc(N)c5c(-c6ccc(NS(=O)(=O)C(F)F)c(O[C@@H](C)c7ccc(F)cc7)c6)nn(C)c45)cn3)CC2)C(C)(C)C)cc1	IC50	1 to 10 µM

Prompt: Write down measured IC50 (U937 human histiocytic leukemia cell line) for this compound. Cc1ncsc1-c1ccc(CNC(=O)[C@@H]2C[C@@H](O)CN2C(=O)[C@@H](NC(=O)CN2CCC(n3cc(-c4cnc(N)c5c(-c6ccc(NS(=O)(=O)C(F)F)c(O[C@@H](C)c7ccc(F)cc7)c6)nn(C)c45)cn3)C2)C(C)(C)C)cc1 (some centres unmarked)
Response: 1 to 10 µM

----------
# tested system: human MLKL (full length) (Homo sapiens (Human), UniProt Q8NB16)
# Sequence (Q8NB16 whole entry): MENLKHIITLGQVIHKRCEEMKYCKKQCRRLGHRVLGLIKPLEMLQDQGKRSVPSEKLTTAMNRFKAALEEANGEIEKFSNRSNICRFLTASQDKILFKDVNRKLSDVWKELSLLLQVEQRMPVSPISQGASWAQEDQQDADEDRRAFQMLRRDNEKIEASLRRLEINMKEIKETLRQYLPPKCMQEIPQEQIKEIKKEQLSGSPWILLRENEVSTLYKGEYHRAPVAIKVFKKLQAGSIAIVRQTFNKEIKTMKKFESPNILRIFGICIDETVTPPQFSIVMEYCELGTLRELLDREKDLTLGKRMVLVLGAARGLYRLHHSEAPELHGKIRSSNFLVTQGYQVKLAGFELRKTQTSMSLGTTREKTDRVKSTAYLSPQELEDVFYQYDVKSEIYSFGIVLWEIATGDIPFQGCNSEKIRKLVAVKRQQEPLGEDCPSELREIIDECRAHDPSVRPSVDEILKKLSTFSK
# assay method text: KINOMEscan binding assay, human MLKL (full length)
# test settings: hMLKL, Table 25; read-out: MLKL (KD)
assay readout: Kd

Example compounds with recorded Kd:
compound	assay readout	assay result
Cc1ncsc1-c1ccc(CNC(=O)[C@@H]2C[C@@H](O)CN2C(=O)[C@@H](NC(=O)CCCCCOc2ccc(-c3cnc(N)c4c(-c5ccc(NS(=O)(=O)C(F)F)c(O[C@@H](C)c6ccc(F)cc6)c5)nn(C)c34)cc2)C(C)(C)C)cc1	Kd	10 to 1000 nM
Cc1ncsc1-c1ccc(CNC(=O)[C@@H]2C[C@@H](O)CN2C(=O)[C@@H](NC(=O)c2ccc(OCCn3cc(-c4cnc(N)c5c(-c6ccc(NS(=O)(=O)C(F)F)c(O[C@@H](C)c7ccc(F)cc7)c6)nn(C)c45)cn3)cc2)C(C)(C)C)cc1	Kd	10 to 1000 nM

// for each compound in input: emit Kd
1. C[C@H](Oc1cc(-c2nn(C)c3c(-c4cnn(C5CCC(C(=O)N6CCC(c7cccc8c7C(=O)N(C7CCC(=O)NC7=O)C8=O)CC6)CC5)c4)cnc(N)c23)ccc1NS(=O)(=O)C(F)F)c1ccc(F)cc1 (some centres unmarked)
2. Cc1ncsc1-c1ccc(CNC(=O)[C@@H]2C[C@@H](O)CN2C(=O)[C@@H](NC(=O)C2(F)CC2)C(C)(C)C)c(OCCCCCCn2cc(-c3cnc(N)c4c(-c5ccc(NS(=O)(=O)C(F)F)c(O[C@@H](C)c6ccc(F)cc6)c5)nn(C)c34)cn2)c1

Response:
["10 to 1000 nM", "10 to 1000 nM"]

// for each compound in input: emit Kd
1. CCS(=O)(=O)Nc1ccc(-c2n[nH]c3c(-c4cnn(CCCCC(=O)N[C@H](C(=O)N5C[C@H](O)C[C@H]5C(=O)NCc5ccc(-c6scnc6C)cc5)C(C)(C)C)c4)cnc(N)c23)cc1OCc1ccc(F)cc1
2. Cc1ncsc1-c1ccc(CNC(=O)[C@@H]2C[C@@H](O)CN2C(=O)[C@@H](NC(=O)CCCCCCC#Cc2cnc(N)c3c(-c4ccc(NS(=O)(=O)C(F)F)c(F)c4)nn(C)c23)C(C)(C)C)cc1
3. C[C@H](Oc1cc(-c2nn(C)c3c(-c4cnn(C5CCN(C(=O)C6CCC(c7ccc8c(c7)C(=O)N(C7CCC(=O)NC7=O)C8=O)CC6)CC5)c4)cnc(N)c23)ccc1NS(=O)(=O)C(F)F)c1ccc(F)cc1 (some centres unmarked)

Response:
1: < 10 nM; 2: 10 to 1000 nM; 3: < 10 nM

Prompt: Tell me its Kd given C[C@H](Oc1cc(-c2nn(C)c3c(-c4cnn(C5CCN(CCN6CCCC(COc7cccc8c7C(=O)N(C7CCC(=O)NC7=O)C8=O)C6)CC5)c4)cnc(N)c23)ccc1NS(=O)(=O)C(F)F)c1ccc(F)cc1 (some centres unmarked) as the entry.
Response: 10 to 1000 nM
